Catalogue of compounds with associated fraction fluorescent probe displaced, Replicate
molecular target: MDM2 (Homo sapiens, UniProt Q00987); assay: MDM2 binding screen: displacement of fluorescent p53 peptide probe FP53 (fluorescence polarization); settings: Acid 91; replicate; crude macrocycle reactions
Sequence (Q00987 whole entry): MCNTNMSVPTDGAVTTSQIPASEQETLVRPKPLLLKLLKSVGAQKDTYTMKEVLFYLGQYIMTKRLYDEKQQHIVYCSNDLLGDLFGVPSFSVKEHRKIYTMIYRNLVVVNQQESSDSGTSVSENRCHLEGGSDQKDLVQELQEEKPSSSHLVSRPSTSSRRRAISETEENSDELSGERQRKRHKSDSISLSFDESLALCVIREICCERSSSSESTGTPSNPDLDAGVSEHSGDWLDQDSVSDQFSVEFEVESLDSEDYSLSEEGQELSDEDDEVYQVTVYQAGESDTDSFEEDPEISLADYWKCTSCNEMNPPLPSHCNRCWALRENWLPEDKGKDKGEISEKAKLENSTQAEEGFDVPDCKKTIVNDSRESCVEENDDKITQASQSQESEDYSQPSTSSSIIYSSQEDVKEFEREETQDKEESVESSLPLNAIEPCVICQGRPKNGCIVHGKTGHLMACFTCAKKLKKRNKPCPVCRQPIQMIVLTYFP
Numbered stars: 1 amine (or outer) side, 2 acyl side, 3 side chain; on linkers, the order of the positions; unused ones are H or OH. Bridge positions count the residues as written; N and C are the ends. Square brackets hold non-standard residues; d marks the D form. Peptide text beside a SMILES is read from it. * marks the point of attachment. Cysteamide = C(CS[*:3])N[*:1]; X1 = O=C(/C=C/c1ccccc1)*; Api = NC1(C(=O)O)CCNCC1; Dap = NC[C@H](N)C(=O)O; X2 = O=C(C=Cc1ccccc1)*; Mpa = O=C(O)CCS
# answer = number (no unit)

Examples from the recorded data:
[Q] What value of fraction fluorescent probe displaced, Replicate has been reported for the following compound? O=C1CCSSCCNC(=O)[C@H](Cc2c[nH]c3ccccc23)NC(=O)[C@@H]2CCCN2C(=O)C2(CCN(C(=O)/C=C/c3ccccc3)CC2)N1 [X D6 B1 W Acid 91] ([Mpa][Api](X1)PW-Cysteamide; disulfide 1-C)
[A] 0.04

[Q] What value of fraction fluorescent probe displaced, Replicate has been reported for the following compound? O=C(/C=C/c1ccccc1)NC[C@@H]1NC(=O)c2cccc(c2)CNC(=O)[C@H](Cc2c[nH]c3ccccc23)NC(=O)CCSSCCNC1=O [X W B5 D3 Acid 91]
[A] 0.07

[Q] What value of fraction fluorescent probe displaced, Replicate has been reported for the following compound? O=C(/C=C/c1ccccc1)NC[C@@H]1NC(=O)CCSSCCNC(=O)c2cccc(c2)CNC(=O)[C@H](Cc2c[nH]c3ccccc23)NC1=O [X D3 W B5 Acid 91]
[A] 0.32

[Q] What value of fraction fluorescent probe displaced, Replicate has been reported for the following compound? O=C1NCCSSCCC(=O)N2CCN(C(=O)C=Cc3ccccc3)CC2C(=O)NC(Cc2c[nH]c3ccccc23)C(=O)N2CCCC1C2 (stereo not drawn) [X D7 W B4 Acid 91]
[A] 0.04

[Q] What value of fraction fluorescent probe displaced, Replicate has been reported for the following compound? O=C1CCSSCCNC(=O)C2(CCN(C(=O)/C=C/c3ccccc3)CC2)NC(=O)[C@H]2CCCN(C2)C(=O)[C@H](Cc2ccccc2)N1 [X F B4 D6 Acid 91]
[A] -0.00827

[Q] What value of fraction fluorescent probe displaced, Replicate has been reported for the following compound? O=C1CCNC(=O)[C@H](Cc2ccccc2)NC(=O)C2(CCN(C(=O)/C=C/c3ccccc3)CC2)NC(=O)CCSSCCN1 [X D6 F B2 Acid 91]
[A] 0.04

[Q] What value of fraction fluorescent probe displaced, Replicate has been reported for the following compound? O=C1CCNC(=O)C2(CCN(C(=O)/C=C/c3ccccc3)CC2)NC(=O)CCSSCCNC(=O)[C@H](Cc2ccccc2)N1 [X D6 B2 F Acid 91]
[A] -0.00827

[Q] What value of fraction fluorescent probe displaced, Replicate has been reported for the following compound? O=C(C=Cc1ccccc1)NC1CC2C(=O)NC(Cc3c[nH]c4ccccc34)C(=O)N3CCCC(C3)C(=O)NCCSSCCC(=O)N2C1 (stereo not drawn) [X D5 W B4 Acid 91]
[A] 0.07

---
[Q] What value of fraction fluorescent probe displaced, Replicate has been reported for the following compound? O=C1NC2(CCN(C(=O)C=Cc3ccccc3)CC2)C(=O)NCCSSCCC(=O)N2CCCC2C(=O)NC1Cc1ccccc1 (stereo not drawn) [X B1 F D6 Acid 91] ([Mpa]PF[Api](X2)-Cysteamide; disulfide 1-C; configuration not given here)
[A] 0.04

[Q] What value of fraction fluorescent probe displaced, Replicate has been reported for the following compound? O=C1CCSSCCNC(=O)[C@@H]2CCCN2C(=O)[C@H](Cc2ccccc2)NC(=O)C2(CCN(C(=O)/C=C/c3ccccc3)CC2)N1 [X D6 F B1 Acid 91] ([Mpa][Api](X1)FP-Cysteamide; disulfide 1-C)
[A] -0.08

[Q] What value of fraction fluorescent probe displaced, Replicate has been reported for the following compound? O=C1CCSSCCNC(=O)C(Cc2c[nH]c3ccccc23)NC(=O)C2CN(C(=O)C=Cc3ccccc3)CCN2C(=O)CCN1 (stereo not drawn) [X B2 D7 W Acid 91]
[A] 0.07

[Q] What value of fraction fluorescent probe displaced, Replicate has been reported for the following compound? O=C(/C=C/c1ccccc1)NC[C@@H]1NC(=O)[C@@H]2CCCN2C(=O)[C@H](Cc2c[nH]c3ccccc23)NC(=O)CCSSCCNC1=O [X W B1 D3 Acid 91] ([Mpa]WP[Dap](X1)-Cysteamide; disulfide 1-C)
[A] 0.12

[Q] What value of fraction fluorescent probe displaced, Replicate has been reported for the following compound? O=C(C=Cc1ccccc1)NCC1NC(=O)CCSSCCNC(=O)C(Cc2c[nH]c3ccccc23)NC(=O)c2cccc(c2)CNC1=O (stereo not drawn) [X D3 B5 W Acid 91]
[A] 0.14

[Q] What value of fraction fluorescent probe displaced, Replicate has been reported for the following compound? O=C(C=Cc1ccccc1)NC1CC2C(=O)NCCC(=O)NCCSSCCC(=O)NC(Cc3ccccc3)C(=O)N2C1 (stereo not drawn) [X F D5 B2 Acid 91]
[A] 0.0168

[Q] What value of fraction fluorescent probe displaced, Replicate has been reported for the following compound? O=C(C=Cc1ccccc1)NCC1NC(=O)CCSSCCNC(=O)C(Cc2c[nH]c3ccccc23)NC(=O)CCNC1=O (stereo not drawn) [X D3 B2 W Acid 91]
[A] -0.0333
